# Tested on: Staphylococcus aureus
# experimentDescription: In vitro antibacterial activity against Staphylococcus aureus SG511
# Assay type: functional
# testContext: Staphylococcus aureus; read-out: MIC
attributeMeasured: MIC (µg/mL)

>>> endpointresult("C[C@@H](O)[C@H]1C(=O)N2C(C(=O)O)=C(S[C@@H]3CN[C@H](C(=O)N(C)C)C3)[C@H](C)[C@H]12")
0.195
>>> endpointresult("C[C@@H](O)[C@H]1C(=O)N2C(C(=O)O)=C(S[C@@H]3CN[C@H](C4CC(CO)=NO4)C3)[C@H](C)[C@H]12 (stereo in doubt; form 1)")
0.098
>>> endpointresult("C[C@@H](O)[C@H]1C(=O)N2C(C(=O)O)=C(S[C@@H]3CN[C@H](c4cc(CO)on4)C3)[C@H](C)[C@H]12")
0.098
>>> endpointresult("C[C@@H](O)[C@H]1C(=O)N2C(C(=O)O)=C(S[C@@H]3CN[C@H](C4CCN(C)O4)C3)[C@H](C)[C@H]12 (some centres undefined)")
0.098
